Taken from patent US10975119B2.

The following molecules are shown together with reported inhibition at 100 µM values.
Measured target: Caspase-7 (Homo sapiens)
Construct: mixing the compounds with the respective active caspases; purchased BioVision K157-100
Sequence (P55210 24-198 limits assumed): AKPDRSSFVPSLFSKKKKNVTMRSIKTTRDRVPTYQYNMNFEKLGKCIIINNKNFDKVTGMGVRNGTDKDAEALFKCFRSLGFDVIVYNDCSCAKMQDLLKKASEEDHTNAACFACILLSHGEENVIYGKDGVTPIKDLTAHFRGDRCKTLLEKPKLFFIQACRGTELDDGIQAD
Sequence (P55210 207-303 limits assumed): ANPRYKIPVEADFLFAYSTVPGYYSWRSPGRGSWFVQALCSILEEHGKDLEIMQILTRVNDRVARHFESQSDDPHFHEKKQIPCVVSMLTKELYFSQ
Protocol summary: Caspase-7 inhibitor screening assay (BioVision kit, DEVD-AFC)
Type: biochemical
Experimental context: 100 uM; read-out: % Inhibition at 100 uM Casp7
Description: […]
The reply should contain only the number, in %.

>>> observed_value("CCC(C)[C@H](NC(=O)[C@H](CCC(=O)O)NC(=O)[C@@H](NC(=O)OCc1ccccc1)C(C)C)C(=O)N[C@H](/C=C/S(C)(=O)=O)CC(=O)O (stereo partly drawn)")
31

Then there is this molecule:
Give inhibition at 100 µM for "CC(C)[C@H](NC(=O)[C@@H](NC(=O)[C@H](CC(=O)O)NC(=O)OCc1ccccc1)c1ccccc1)C(=O)N[C@H](/C=C/S(C)(=O)=O)CCC(=O)O"
76

====

Measured target: Caspase-5 (Homo sapiens)
Construct: mixing the compounds with the respective active caspases; purchased BioVision K155-100
Protocol summary: Caspase-5 inhibitor screening assay (BioVision kit, WEHD-AFC)
Type: biochemical
Experimental context: read-out: IC50 Casp5
The following compounds are shown together with reported pIC50 values.
pIC50 is defined as minus the log10 of a concentration measured in mol/L.

Previously resolved entries follow.
>>> observed_value("CCC(C)[C@H](NC(=O)[C@H](CCC(=O)O)NC(=O)[C@@H](NC(=O)OCc1ccccc1)C(C)C)C(=O)N[C@H](/C=C/S(C)(=O)=O)CC(=O)O (stereo partly shown)")
4.71
>>> observed_value("CC(C)[C@H](NC(=O)[C@@H](N)Cc1ccc(O)cc1)C(=O)N[C@@H](C)C(=O)N[C@H](/C=C/S(C)(=O)=O)CC(=O)O")
4.91
>>> observed_value("CCOC(=O)/C(Cl)=C/[C@H](CC(=O)O)NC(=O)[C@H]1CCCN1C(=O)[C@@H](NC(=O)c1ccc(N)c(Cl)c1)C(C)(C)C")
6.05

Then there is this compound:
Give measured pIC50 for "CCOC(=O)/C(Cl)=C/[C@H](CC(=O)O)NC(=O)[C@H]1CCCN1C(=O)[C@H](NC(=O)[C@H](CC(=O)O)NC(=O)OCc1ccccc1)C(C)(C)C" (Caspase-5 (Homo sapiens)).
4.80

====

Measured target: Caspase-5 (Homo sapiens, UniProt P51878)
Construct: mixing the compounds with the respective active caspases; purchased BioVision K155-100
Sequence (P51878 137-327 limits assumed): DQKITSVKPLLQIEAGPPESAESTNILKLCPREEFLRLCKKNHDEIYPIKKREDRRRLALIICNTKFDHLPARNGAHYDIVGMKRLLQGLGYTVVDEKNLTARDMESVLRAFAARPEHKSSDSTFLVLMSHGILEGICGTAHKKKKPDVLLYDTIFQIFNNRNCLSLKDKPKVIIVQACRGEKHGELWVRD
Sequence (P51878 347-434 limits assumed): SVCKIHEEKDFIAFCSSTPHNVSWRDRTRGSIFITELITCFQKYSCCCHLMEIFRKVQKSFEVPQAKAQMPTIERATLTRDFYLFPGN
Protocol summary: Caspase-5 inhibitor screening assay (BioVision kit, WEHD-AFC)
Type: biochemical
Experimental context: read-out: % Inhibition at 10 uM Casp5
Threshold rule: inhibition at 10 µM greater than or equal to 8% is yes; below that, no.

Worked examples, 4 compounds total:
>>> assigned_label("CCOC(=O)/C=C/[C@H](CC(=O)O)NC(=O)[C@@H](NC(=O)[C@@H](NC(=O)[C@H](CC(=O)O)NC(=O)OCc1ccccc1)c1ccccc1)C(C)C")
"yes"
>>> assigned_label("CC(C)[C@H](NC(=O)[C@@H](N)Cc1ccc(O)cc1)C(=O)N[C@@H](C)C(=O)N[C@H](/C=C/S(C)(=O)=O)CC(=O)O")
"yes"
>>> assigned_label("CS(=O)(=O)/C=C/[C@H](CC(=O)O)NC(=O)[C@H](CCC(=O)O)NC(=O)c1ccc2ccccc2n1")
"no"
>>> assigned_label("CC(C)[C@H](NC(=O)c1ccc2ccccc2n1)C(=O)N[C@H](/C=C/S(C)(=O)=O)CC(=O)O")
"no"

Does the reported inhibition at 10 µM for "CCOC(=O)/C=C/[C@H](CC(=O)O)NC(=O)[C@H]1CCCN1C(=O)[C@@H](NC(=O)c1ccc2ccccc2n1)C(C)(C)C" fall at or above the 8% mark?
yes

====

Measured target: Caspase-10 (Homo sapiens)
Construct: mixing the compounds with the respective active caspases; purchased BioVision K160-100
Protocol summary: Caspase-10 inhibitor screening assay (BioVision kit, AEVD-AFC)
Assay type: biochemical
Experimental context: 100 uM; read-out: % Inhibition at 100 uM Casp10
From the text: […]
Counter-ions that a name gives are not always drawn.
Value kind: inhibition at 100 µM (%)
The reply should contain only the number, in %.

Previously resolved entries follow.
>>> observed_value("CC(C)(C)[C@H](NC(=O)c1ccc2ccccc2n1)C(=O)N1CCC[C@@H]1C(=O)N[C@H](/C=C/S(C)(=O)=O)CC(=O)O [Compound 6]")
74
>>> observed_value("CC(C)(C)[C@H](NC(=O)c1ccc2ccccc2n1)C(=O)N1CC[C@@H]1C(=O)N[C@H](/C=C/S(C)(=O)=O)CC(=O)O [Compound 20]")
93
>>> observed_value("CC(C)(C)[C@H](NC(=O)c1ccc(N)c(Cl)c1)C(=O)N1CCCC1C(=O)N[C@H](/C=C/S(C)(=O)=O)CC(=O)O (stereo in doubt) [Compound 14]")
100

Give inhibition at 100 µM for CS(=O)(=O)/C=C/[C@H](CC(=O)O)NC(=O)[C@H]1CCCN1C(=O)[C@@H](NC(=O)[C@H](CC(=O)O)NC(=O)OCc1ccccc1)c1ccccc1 [Compound 30]
92

Give inhibition at 100 µM for CCOC(=O)/C=C/[C@H](CC(=O)O)NC(=O)[C@@H](NC(=O)[C@@H](NC(=O)[C@H](CC(=O)O)NC(=O)OCc1ccccc1)c1ccccc1)C(C)C [Compound 105, Z-Asp-Phg-Val-Asp Ethyl Vinyl Ester]
99

Give inhibition at 100 µM for CC(C)[C@H](NC(=O)OCc1ccccc1)C(=O)N[C@H](/C=C(\Cl)S(C)(=O)=O)CC(=O)O [Compound 2]
48

Give inhibition at 100 µM for CCOC(=O)/C=C/[C@@H](N)CC(=O)O [Compound 44, Asp ethyl vinyl ester tosyl salt]
15

Give inhibition at 100 µM for CC(C)[C@H](NC(=O)c1ccc2ccccc2n1)C(=O)N[C@H](/C=C/S(C)(=O)=O)CC(=O)O [Compound 16]
35

Give inhibition at 100 µM for CC(C)(C)[C@H](NC(=O)[C@H](CC(=O)O)NC(=O)OCc1ccccc1)C(=O)N1CCCC1C(=O)N[C@H](/C=C/S(C)(=O)=O)CC(=O)O (stereo in doubt) [Compound 26, Z-Asp-t-Leu-Pro-Asp-methyl vinyl sulfone]
100

====

The following compounds are shown together with reported inhibition at 10 µM values.
Measured target: Caspase-6 (Homo sapiens)
Construct: mixing the compounds with the respective active caspases; purchased BioVision K156-100
Sequence (P55212 24-179 limits assumed): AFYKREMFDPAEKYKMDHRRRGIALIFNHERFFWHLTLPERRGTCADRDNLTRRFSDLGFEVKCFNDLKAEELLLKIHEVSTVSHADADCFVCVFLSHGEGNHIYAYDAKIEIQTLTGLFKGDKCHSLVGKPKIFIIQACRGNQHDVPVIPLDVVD
Sequence (P55212 194-293 limits assumed): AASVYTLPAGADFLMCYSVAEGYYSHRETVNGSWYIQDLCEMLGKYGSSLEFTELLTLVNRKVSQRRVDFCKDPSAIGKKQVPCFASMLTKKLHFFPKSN
Protocol summary: Caspase-6 inhibitor screening assay (BioVision kit, VEID-AFC)
Format: biochemical
Experimental context: read-out: % Inhibition at 10 uM Casp6
The reply should contain only the number, in %.

Previously resolved entries follow.
>>> observed_value("CS(=O)(=O)/C(Cl)=C/[C@@H](N)CC(=O)O")
0
>>> observed_value("CC(C)(C)[C@@H](NC(=O)[C@H](CC(=O)O)NC(=O)OCc1ccccc1)C(=O)N1CC[C@@H]1C(=O)N[C@H](/C=C/S(C)(=O)=O)CC(=O)O")
0

Give inhibition at 10 µM for "CC(C)[C@H](NC(=O)[C@H](CCC(=O)O)NC(=O)[C@H](Cc1c[nH]c2ccccc12)NC(=O)OCc1ccccc1)C(=O)N[C@H](/C=C/S(C)(=O)=O)CC(=O)O"
7

====

Measured target: Caspase-8 (Homo sapiens)
Construct: mixing the compounds with the respective active caspases; purchased BioVision K158-100
Sequence (Q14790 217-374 limits assumed): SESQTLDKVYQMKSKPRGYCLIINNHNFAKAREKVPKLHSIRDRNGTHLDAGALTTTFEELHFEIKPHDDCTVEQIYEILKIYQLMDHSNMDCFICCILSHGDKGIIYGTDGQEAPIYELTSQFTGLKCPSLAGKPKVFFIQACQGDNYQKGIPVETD
Sequence (Q14790 385-479 limits assumed): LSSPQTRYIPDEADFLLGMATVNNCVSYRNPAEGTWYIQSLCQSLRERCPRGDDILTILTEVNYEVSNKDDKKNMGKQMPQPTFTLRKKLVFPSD
Protocol summary: Caspase-8 inhibitor screening assay (BioVision kit, IETD-AFC)
Assay type: biochemical
Experimental context: read-out: IC50 Casp8
Value kind: IC50 (nM)
The reply should contain only the number, in nM.

>>> observed_value("CCOC(=O)/C=C/[C@H](CC(=O)O)NC(=O)[C@@H](NC(=O)[C@H](CCC(=O)O)NC(=O)[C@@H](NC(=O)OCc1ccccc1)C(C)C)c1ccccc1")
80

Give IC50 for CC(C)(C)[C@H](NC(=O)[C@H](CC(=O)O)NC(=O)OCc1ccccc1)C(=O)N1CCCC1C(=O)N[C@H](/C=C/S(C)(=O)=O)CC(=O)O (stereo in doubt)
2230

Give IC50 for CS(=O)(=O)/C=C/[C@H](CC(=O)O)NC(=O)C1CCCN1C(=O)[C@@H](NC(=O)[C@H](CC(=O)O)NC(=O)OCc1ccccc1)C1CC1 (stereo in doubt)
27600

Give IC50 for CCC(C)[C@H](NC(=O)[C@H](CCC(=O)O)NC(=O)[C@@H](NC(=O)OCc1ccccc1)C(C)C)C(=O)N[C@H](/C=C(\Cl)S(C)(=O)=O)CC(=O)O (some centres unmarked)
530

====

The following compounds are shown together with reported IC50 values.
Measured target: Caspase-10 (Homo sapiens)
Construct: mixing the compounds with the respective active caspases; purchased BioVision K160-100
Sequence (Q92851 220-415 limits assumed): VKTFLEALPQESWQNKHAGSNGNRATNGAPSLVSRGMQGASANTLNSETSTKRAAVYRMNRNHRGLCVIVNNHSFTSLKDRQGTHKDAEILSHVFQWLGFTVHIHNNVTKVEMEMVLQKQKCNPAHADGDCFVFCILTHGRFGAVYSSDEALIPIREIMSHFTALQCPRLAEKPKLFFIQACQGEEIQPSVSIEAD
Sequence (Q92851 416-521 limits assumed): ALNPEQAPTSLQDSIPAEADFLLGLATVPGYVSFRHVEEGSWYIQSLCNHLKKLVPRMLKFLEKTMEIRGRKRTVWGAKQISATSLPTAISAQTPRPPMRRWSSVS
Protocol summary: Caspase-10 inhibitor screening assay (BioVision kit, AEVD-AFC)
Assay type: biochemical
Experimental context: read-out: potency (IC50) against caspase-10
From the text: […]
The reply should contain only the number, in nM.

Previously resolved entries follow.
>>> observed_value("CC(C)(C)[C@H](NC(=O)c1ccc(N)c(Cl)c1)C(=O)N1CCCC1C(=O)N[C@H](/C=C/S(C)(=O)=O)CC(=O)O (stereo in doubt) [Compound 14]")
2670
>>> observed_value("CC(C)(C)[C@H](NC(=O)[C@H](CC(=O)O)NC(=O)OCc1ccccc1)C(=O)N1CCCC1C(=O)N[C@H](/C=C/S(C)(=O)=O)CC(=O)O (stereo in doubt) [Compound 26, Z-Asp-t-Leu-Pro-Asp-methyl vinyl sulfone]")
161

Give IC50 for CCOC(=O)/C=C/[C@H](CC(=O)O)NC(=O)[C@@H](NC(=O)[C@@H](NC(=O)[C@H](CC(=O)O)NC(=O)OCc1ccccc1)c1ccccc1)C(C)C [Compound 105, Z-Asp-Phg-Val-Asp Ethyl Vinyl Ester]
592

Give IC50 for CCOC(=O)/C=C/[C@H](CC(=O)O)NC(=O)[C@@H](NC(=O)[C@H](CCC(=O)O)NC(=O)[C@@H](NC(=O)OCc1ccccc1)C(C)C)c1ccccc1 [Compound 126, Z-Val-Glu-Phg-Asp-Ethyl Vinyl ester]
2
